meta.source: patent US10344024B2

Target: GST-tagged ROR gamma ligand binding domain (LBD) (Homo sapiens, UniProt P51449)
Construct: purchased Invitrogen
Experiment: TR-FRET assay for ROR gamma (LanthaScreen co-activator peptide recruitment)
Type: biochemical
Conditions: compound concentration 10 μM; TR-FRET ratio 520/495, percent of control
Experimental: The compounds described herein were screened for ROR gamma modulator activity using the TR-FRET assay (LanthaScreen™ available from Invitrogen of Carlsbad, Calif.) as described in JBC 2011, 286, 26: 22707-10; and Drug Metabolism and Disposition 2009, 37, 10: 2069-78. […] After shaking for 5 minutes the reaction was further incubated for 1 hour at room temperature and read at 4° C. on an Infinite F500 reader as per the kit instructions (Invitrogen). […]
Rule: inhibition at 10 µM below 80% gives Satisfied, anything at or above gives Not satisfied.

compound	assignedCategory
CCC(F)(F)c1ccc(CC(=O)Nc2ccc(-c3nccnc3N3CCN(C(C)=O)CC3C)cc2)cc1 (stereo not shown)	Satisfied
CC(O)C(F)(F)c1ccc(CC(=O)Nc2ccc(-c3nccnc3OCC3CCCCC3)cc2)cc1 (stereo not shown)	Not satisfied
CCC(F)(F)c1ccc(CC(=O)Nc2ccc(-c3ncccc3-c3ccc(F)cc3)cc2)cc1	Not satisfied
CC(O)C(F)(F)c1ccc(CC(=O)Nc2ccc(-c3nccnc3N3CCN(C(=O)C4CC4)CC3)cc2)cc1 (stereo not shown)	Satisfied
CC(O)C(F)(F)c1ccc(CC(=O)Nc2ccc(-c3nccnc3NCC3CCCCC3)cc2)cc1 (stereo not shown)	Satisfied
CCC(F)(F)c1ccc(CC(=O)Nc2ccc(-c3nccnc3N3C[C@@H](C)O[C@@H](C)C3)cc2)cc1	Satisfied
CC(O)C(F)(F)c1ccc(CC(=O)Nc2ccc(-c3nccnc3N3CC(OCc4ccccc4)C3)cc2)cc1 (stereo not shown)	Satisfied
CCC(F)(F)c1ccc(CC(=O)Nc2ccc(-c3ccncc3-c3ccc(Cl)cc3)cc2)cc1	Satisfied
CCC(F)(F)c1ccc(CC(=O)Nc2ccc(-c3nccnc3N[C@@H](C)c3ccc(F)cc3Cl)cc2)cc1	Not satisfied
CCC(F)(F)c1ccc(CC(=O)Nc2ccc(-c3nccnc3N[C@@H](C)c3cccc(Cl)c3)cc2)cc1	Not satisfied
CCN1CCN(c2nccnc2-c2ccc(NC(=O)Cc3ccc(C(F)(F)CC)cc3)cc2)CC1	Satisfied
CCC(F)(F)c1ccc(CC(=O)Nc2ccc(-c3nccnc3N3CCN(C(=O)C4CC4)CC3)cc2)cc1	Satisfied
CCC(F)(F)c1ccc(CC(=O)Nc2ccc(-c3nccnc3-c3ccc(C#N)cc3)cc2)cc1	Satisfied
CCC(F)(F)c1ccc(CC(=O)Nc2ccc(-n3nc(C)cc3-c3ccc(Cl)cc3Cl)cc2)cc1	Satisfied

---

Biological target: GST-tagged ROR gamma ligand binding domain (LBD) (Homo sapiens, UniProt P51449)
Construct: purchased Invitrogen
Test: TR-FRET assay for ROR gamma (LanthaScreen co-activator peptide recruitment)
Format: biochemical
Conditions: compound concentration 1 μM; TR-FRET ratio 520/495, percent of control

compound	inhibition at 1 µM [%]
CC(O)C(F)(F)c1ccc(CC(=O)Nc2ccc(-c3nccnc3-c3cccc(Cl)c3)cc2)cc1 (centres unmarked)	60.7
CC(O)C(F)(F)c1ccc(CC(=O)Nc2ccc(-c3nccnc3O[C@H](C)c3ccccc3Cl)cc2)cc1 (some centres unmarked)	83.8
CCC(F)(F)c1ccc(CC(=O)Nc2ccc(-c3nccnc3-c3ccccc3Cl)cc2)cc1	81.5
CCC(F)(F)c1ccc(CC(=O)Nc2ccc(-c3nccnc3N[C@H](C)c3ccccc3)cc2)cc1	58.6
CCC(F)(F)c1ccc(CC(=O)Nc2ccc(-c3nccnc3N(C)Cc3ccccc3)cc2)cc1	73.4
CC(O)C(F)(F)c1ccc(CC(=O)Nc2ccc(-c3nccnc3N[C@@H](C)c3ccccc3Cl)cc2F)cc1 (some centres unmarked)	78.5
CC(O)C(F)(F)c1ccc(CC(=O)Nc2ccc(-c3cnn(C(C)(C)C)c3-c3ccc(F)cc3)cc2)cc1 (centres unmarked)	46.7
CCC(F)(F)c1ccc(CC(=O)Nc2ccc(-c3nccnc3N3CCN(C(C)=O)CC3)cc2)cc1	61.6

---

Target: GST-tagged ROR gamma ligand binding domain (LBD) (Homo sapiens)
Construct: purchased Invitrogen
Test: TR-FRET assay for ROR gamma (LanthaScreen co-activator peptide recruitment)
Type: biochemical
Details: compound concentration 10 μM; TR-FRET ratio 520/495, percent of control

molecule	inhibition at 10 µM (%)
CCC(F)(F)c1ccc(CC(=O)Nc2ccc(-c3nccnc3-c3ccccc3Cl)cc2)cc1 [Example 5]	84.4
CCC(F)(F)c1ccc(CC(=O)Nc2ccc(-c3nccnc3NC(CO)c3ccccc3)cc2)cc1 (stereo not shown) [Example 97]	46.2
CCC(F)(F)c1ccc(CC(=O)Nc2ccc(-c3nccnc3NC(C)c3ccccc3)cc2)cc1 (stereo not shown) [Example 58]	90.7
CC(O)C(F)(F)c1ccc(CC(=O)Nc2ccc(-c3nccnc3O[C@@H](C)c3ccccc3Cl)cc2)cc1 (stereo partly shown) [Example 86]	86

---

Documented inhibition at 1 µM across a set of molecules
Biological target: GST-tagged ROR gamma ligand binding domain (LBD) (Homo sapiens, UniProt P51449)
Construct: purchased Invitrogen
Assay: TR-FRET assay for ROR gamma (LanthaScreen co-activator peptide recruitment)
Assay type: biochemical
Settings: compound concentration 1 μM; TR-FRET ratio 520/495, percent of control
readoutType: inhibition at 1 µM (%)

molecule	system	recordedNumber
CCC(F)(F)c1ccc(CC(=O)Nc2ccc(-c3nccnc3O[C@@H](C)c3ccccc3Cl)cc2)cc1	GST-tagged ROR gamma ligand binding domain (LBD) (Homo sapiens, UniProt P51449)	74.8
Cc1ccc([C@@H](C)Oc2nccnc2-c2ccc(NC(=O)Cc3ccc(C(F)(F)C(C)O)cc3)cc2)c(Cl)c1 (stereo partly drawn)	GST-tagged ROR gamma ligand binding domain (LBD) (Homo sapiens, UniProt P51449)	87.4
CCC(F)(F)c1ccc(CC(=O)Nc2ccc(-c3nccnc3-c3ccc(C)cc3F)cc2)cc1	GST-tagged ROR gamma ligand binding domain (LBD) (Homo sapiens, UniProt P51449)	79.2

---

Target: GST-tagged ROR gamma ligand binding domain (LBD) (Homo sapiens)
Construct: purchased Invitrogen
Assay: TR-FRET assay for ROR gamma (LanthaScreen co-activator peptide recruitment)
Format: biochemical
Details: compound concentration 1 μM; TR-FRET ratio 520/495, percent of control
Rule: inhibition at 1 µM below 80% gives met, anything at or above gives not met.

compound	assignedCategory
CCC(F)(F)c1ccc(CC(=O)Nc2ccc(-c3nccnc3N[C@@H](C)c3ccccc3)cc2)cc1	not met
CCC(F)(F)c1ccc(CC(=O)Nc2ccc(-c3nccnc3N[C@@H](C)c3ccccc3Cl)cc2)cc1	not met
CCC(F)(F)c1ccc(CC(=O)Nc2ccc(-c3cnn(C(C)(C)C)c3-c3ccc(F)cc3)cc2)cc1	met
CCC(F)(F)c1ccc(CC(=O)Nc2ccc(-c3cnccc3-c3ccc(Cl)cc3)cc2)cc1	met
CCC(F)(F)c1ccc(CC(=O)Nc2ccc(-c3ncccc3-c3ccc(Cl)cc3)cc2)cc1	not met
CC(O)C(F)(F)c1ccc(CC(=O)Nc2ccc(-c3nccnc3OC3(c4ccccc4)CC3)cc2)cc1 (centres unmarked)	met

---

Documented inhibition at 10 µM across a set of molecules
Molecular target: GST-tagged ROR gamma ligand binding domain (LBD) (Homo sapiens)
Construct: purchased Invitrogen
Sequence (P51449 269-508 limits assumed): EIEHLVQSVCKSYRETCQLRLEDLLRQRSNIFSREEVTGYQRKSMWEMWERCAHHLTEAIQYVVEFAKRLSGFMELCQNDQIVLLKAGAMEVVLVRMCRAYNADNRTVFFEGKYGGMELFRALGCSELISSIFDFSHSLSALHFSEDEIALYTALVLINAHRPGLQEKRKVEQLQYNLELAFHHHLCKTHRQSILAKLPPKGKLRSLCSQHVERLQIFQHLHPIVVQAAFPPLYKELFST
Assay: TR-FRET assay for ROR gamma (LanthaScreen co-activator peptide recruitment)
Type: biochemical
Conditions: compound concentration 10 μM; TR-FRET ratio 520/495, percent of control

molecule	scaleUnit	inhibition at 10 µM
Cc1ccc([C@@H](C)Oc2nccnc2-c2ccc(NC(=O)Cc3ccc(C(F)(F)C(C)O)cc3)cc2)c(Cl)c1 (some centres unmarked)	%	85.5
CCC(F)(F)c1ccc(CC(=O)Nc2ccc(-c3nccnc3N(C)[C@@H](C)c3ccccc3)cc2)cc1	%	84.8
CCC(F)(F)c1ccc(CC(=O)Nc2ccc(-c3nccnc3OCc3ccc(F)cc3Cl)cc2)cc1	%	73.7
Cc1ncsc1CCOc1nccnc1-c1ccc(NC(=O)Cc2ccc(C(F)(F)C(C)O)cc2)cc1 (centres unmarked)	%	88
CCC(F)(F)c1ccc(CC(=O)Nc2ccc(-c3nccnc3-c3ccc(Cl)cc3)cc2F)cc1	%	79.6
CCC(F)(F)c1ccc(CC(=O)Nc2ccc(-c3nccnc3Oc3ccccc3Cl)cc2)cc1	%	32.4
COCC(F)(F)c1ccc(CC(=O)Nc2ccc(-c3nccnc3-c3ccc(Cl)cc3)cc2)cc1	%	84.8
CC(O)C(F)(F)c1ccc(CC(=O)Nc2ccc(-c3nccnc3-c3ccc(Cl)cc3)cc2)cc1 (centres unmarked)	%	82.7
